So I've got a bunch of binders here, and I need their Kd values.
# system: T1, recombinant extracellular portion of human IGF1R (IGF1R^933-His fragment) (human, UniProt P08069 31-933)
# T1 construct: It holds a furin site (RKRR) between the alpha and beta subunits, so the protein may be cleaved into two disulphide-linked chains; also called h-IGF1R; recombinant human IGF1R; not shown: His tag from vector pCDN4/myc-His
# T1 sequence (P08069 31-933): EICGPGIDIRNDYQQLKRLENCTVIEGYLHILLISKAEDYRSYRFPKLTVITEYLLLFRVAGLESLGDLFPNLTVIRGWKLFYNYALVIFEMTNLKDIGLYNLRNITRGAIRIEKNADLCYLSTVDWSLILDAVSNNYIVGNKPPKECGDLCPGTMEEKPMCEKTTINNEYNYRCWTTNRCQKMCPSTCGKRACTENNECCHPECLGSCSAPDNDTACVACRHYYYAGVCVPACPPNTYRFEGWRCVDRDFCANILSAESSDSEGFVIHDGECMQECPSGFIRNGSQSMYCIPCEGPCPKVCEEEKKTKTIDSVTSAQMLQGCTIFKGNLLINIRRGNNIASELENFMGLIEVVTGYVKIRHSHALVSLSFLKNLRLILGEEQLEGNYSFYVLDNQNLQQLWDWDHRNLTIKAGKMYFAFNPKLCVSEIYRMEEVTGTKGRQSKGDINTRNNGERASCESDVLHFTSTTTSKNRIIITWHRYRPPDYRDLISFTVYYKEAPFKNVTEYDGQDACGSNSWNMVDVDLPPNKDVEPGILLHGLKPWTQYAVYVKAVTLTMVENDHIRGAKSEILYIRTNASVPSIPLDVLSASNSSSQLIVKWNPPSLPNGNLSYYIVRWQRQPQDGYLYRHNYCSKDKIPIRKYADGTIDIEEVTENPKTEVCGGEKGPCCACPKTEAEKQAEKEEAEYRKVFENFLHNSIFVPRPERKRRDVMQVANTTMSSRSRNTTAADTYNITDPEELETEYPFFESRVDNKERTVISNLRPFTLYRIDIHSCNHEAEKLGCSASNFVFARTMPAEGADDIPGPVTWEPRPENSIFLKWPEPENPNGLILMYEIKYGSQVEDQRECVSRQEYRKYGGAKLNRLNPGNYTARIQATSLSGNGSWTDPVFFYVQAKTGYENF
# method summary: SPR (BIACORE 3000), human IGF1R immobilized on CM5, VHH injected, 1:1 model, 25 C
Give your result in nM as a bare value.

Answer with the recorded Kd of IGF1R-5 VHH (VHH, Llama VHH expressed in E. coli TG1 from vector pSJF2H and purified by IMAC; Monomeric by SEC; also called anti-IGF1R VHH IGF1R-5; wild-type IGF1R-5) VHH: QVKLEESGGGLVQAGGSLRLSCAASGRTIDNYAMAWSRQAPGKDREFVATIDWGDGGARYANSVKGRFTISRDNAKGTMYLQMNNLEPEDTAVYSCAMARQSRVNLDVARYDYWGQGTQVTVSS only.
0.6

Answer with the recorded Kd of IGF1R-5_H1 (VHH, Humanized variant of IGF1R-5, expressed from pSJF2H in E. coli) VHH: EVQLVESGGGLVQPGGSLRLSCAASGRTIDNYAMAWVRQAPGKGLEWVSTIDWGDGGTRYANSVKGRFTISRDNSKNTLYLQMNSLRAEDTAVYYCAMARQSRVNLDVARYDYWGQGTLVTVSS only.
11

Answer with the recorded Kd of IGF1R-5_H2 (VHH, Humanized variant of IGF1R-5, expressed from pSJF2H in E. coli; also called IGF1R H2) VHH: QVQLVESGGGLVQPGGSLRLSCAASGRTIDNYAMAWVRQAPGKGLEWVATIDWGDGGTRYANSVKGRFTISRDNSKNTMYLQMNSLRAEDTAVYYCAMARQSRVNLDVARYDYWGQGTLVTVSS only.
7.5

Answer with the recorded Kd of IGF1R-5_H3 (VHH, Humanized variant of IGF1R-5, expressed from pSJF2H in E. coli) VHH: QVQLVESGGGLVQPGGSLRLSCAASGRTIDNYAMAWSRQAPGKGLEFVATIDWGDGGTRYANSVKGRFTISRDNSKNTMYLQMNSLRAEDTAVYYCAMARQSRVNLDVARYDYWGQGTLVTVSS only.
0.8
